# Test system: Wolbachia pipientis
# procedure.details: Anti-Wolbachia Cell-Based Screen
# Type: functional
# Parameters: scale not given: in the data most compounds retested in dose-response had high values
# assay.context: 5 µM
Among all 48,000 compounds or so, about 13,000 (27%) showed an effect of 50% or more. The list shows a part of the results.
measure: Percent Effect (%)
Entry rule: numbers only, all in %.

Consider the worked cases shown below.
| compound | unit.annotation | Percent Effect |
| --- | --- | --- |
| COc1cccc(C2CCCN2C(=O)c2cc3c(nc2OC)CCC3)c1 (stereo unspecified) | % | -14.5 |
| COc1cccc(C(=O)N2CCCC2c2ncc3c(n2)CCN(C)C3)c1 (stereo unspecified) | % | 114.1 |
| CCNC(=O)[C@@H]1C[C@@H](N)CN1C(=O)Cc1cc(C)ccc1C | % | -80.39 |

Q: Identify the reported Percent Effect for the following entry. COC(=O)[C@@H]1C[C@H](NC(=O)c2cc(=O)[nH]c3ccc(C)cc23)CN1C
A: 103.5

Q: Identify the reported Percent Effect for the following entry. O=C(NC1CC1)N1CCc2ccc(=O)n(Cc3ccncc3)c2CC1
A: 23.4

Q: Name the recorded Percent Effect of the item Cn1cc(CN2CCc3ccc(=O)n(Cc4ccncc4)c3CC2)cn1.O=C(O)C(F)(F)F.O=C(O)C(F)(F)F in your answer.
A: 104.6

Q: Given the compound CCCn1[nH]cc/c1=N\C(=O)CN1CCc2c(nc(C3CC3)n2C)C1 , write its reported Percent Effect.
A: 122.4

Q: Please list Percent Effect recorded for the compound CCc1ccc2nc(C)cc(C(=O)N[C@@H]3CCCNC3)c2c1
A: -27.02

Q: Let me know recorded Percent Effect for CCc1ccc2nc(C)cc(C(=O)N[C@@H]3C[C@@H](CO)N(C)C3)c2c1 , thanks.
A: 90.46

Q: // fetch Percent Effect given entry CN(C)C(=O)Cn1c2c(ccc1=O)CCN(Cc1cnn(C)c1)CC2.O=C(O)C(F)(F)F
A: 120.2

----------
# System: Wolbachia pipientis
# procedure.details: Anti-Wolbachia Cell-Based Screen
# Assay type: functional
# Set-up: scale not given: in the data most compounds retested in dose-response had high values
# assay.context: 5 µM
Out of some 48,000 compounds screened, about 13,000 (27%) showed an effect of 50% or more. The list shows a part of the results.
Overview of recorded Percent Effect for various molecules
Your answer should be a number followed by the unit of measure.

Below: 8 molecules and their reported Percent Effect.
| molecule | measure | observed.result |
| --- | --- | --- |
| FC(F)(F)c1cccc(C2(CNCc3cc[nH]c3)CCOCC2)c1 | Percent Effect | 2.692% |
| CCn1c(CN(C)C(=O)c2ccc(N(C)C)nc2)nc2ccccc21 | Percent Effect | -11.95% |
| CN1CCN(C(=O)NCCc2ccc(F)cc2)[C@H]2CS(=O)(=O)C[C@H]21 | Percent Effect | 8.781% |
| CC1(C(=O)NCc2ccsc2)CCOCC1 | Percent Effect | 107.3% |
| COc1ncccc1NC(=O)N(Cc1ccc(C(N)=O)cc1)C1CC1 | Percent Effect | 99.11% |
| Cc1ccc(NC(=O)N(C)C)c(C(=O)OCC(=O)NC(C)C(C)C)c1 (stereo not drawn) | Percent Effect | -0.8117% |
| CN(C)C1Cc2ccccc2N(S(=O)(=O)c2ccccc2C#N)C1 (stereo not drawn) | Percent Effect | -15.96% |
| CN1CCC(c2cnc(NCc3nccn3C)cn2)CC1 | Percent Effect | 131.5% |

Q: Write Percent Effect of Cc1nnc(N2C[C@@H](Oc3ccccn3)[C@H]3OCCC[C@H]32)s1.O=C(O)C(F)(F)F.O=C(O)C(F)(F)F ; system used: Wolbachia pipientis
A: -5.034%

Q: Lab note: Wolbachia pipientis assay, enter Percent Effect for COCCN1CCN(CC(=O)N(C)Cc2cccc(F)c2)CC1C (stereo not drawn) here
A: -2.425%

----------
# Test system: Wolbachia pipientis
# procedure.details: Anti-Wolbachia Cell-Based Screen
# Assay type: functional
# Set-up: scale not given: in the data most compounds retested in dose-response had high values
# assay.context: 5 µM
In all, about 48,000 compounds went through this assay and about 13,000 (27%) showed an effect of 50% or more. The list shows a part of the results.
measure: Percent Effect (%)
Output spec: scalar in %, unitless text.

| molecule | unit.annotation | Percent Effect |
| --- | --- | --- |
| O=C(O)C(F)(F)F.OCCOCc1n[nH]c2c1CN(Cc1ccco1)C2 | % | 3.715 |
| FC(F)(F)Cn1ccnc1CN1CCOC(Cn2cccn2)C1 (configuration not stated) | % | -0.9498 |
| N#Cc1cccc(S(=O)(=O)N2CCCCC2CCN2CCCC2=O)c1 (configuration not stated) | % | 2.931 |
| COc1ccc(C(=O)N2CCCC3(CCCC(=O)N3C)C2)cc1 (configuration not stated) | % | 91.19 |
| CCCc1cc(CNC2CCN(c3cc(C(C)C)nc(C)n3)CC2)on1 | % | 93.6 |

Q: Find the measured Percent Effect of CC(CC(=O)NS(=O)(=O)c1ccc2c(c1)OCCO2)c1ccc(F)cc1 (configuration not stated) and report it.
A: -2.674

Q: Kindly indicate its recorded Percent Effect. Item: CCc1ccc(C(=O)O)cc1S(=O)(=O)N(C)c1cccc(C)c1
A: -14.76

Q: Entry CCN(CC)S(=O)(=O)NCc1ccc(-c2ccc(C(N)=O)c(C)n2)cc1 needs its Percent Effect filled in; supply it.
A: 82.68

Q: Read the entry CCc1c(C)nn(CCN2CC3(CCOC3)CCC2=O)c1C (configuration not stated) and write its reported Percent Effect.
A: -12.78

Q: Please supply the value of reported Percent Effect for the item COCCCC1CCCCN1S(=O)(=O)c1cccc(C#N)c1 (configuration not stated)
A: 99.73

Q: Annotate the molecule Cc1n[nH]c(SCCNC2CCN(c3nc4ccccc4s3)CC2)n1 with its measured Percent Effect.
A: -0.1074

Q: Provide measured Percent Effect value, entry: O=C(O)C(F)(F)F.O=C(O)C(F)(F)F.O=C(O)C(F)(F)F.c1cncc(OCc2n[nH]c3c2CN(Cc2cccs2)C3)c1
A: -32.3

----------
# System: Wolbachia pipientis
# procedure.details: Anti-Wolbachia Cell-Based Screen
# Type: functional
# Design: scale not given: in the data most compounds retested in dose-response had high values
# assay.context: 5 µM
The whole screen tested about 48,000 compounds, of which about 13,000 (27%) showed an effect of 50% or more. The list shows a part of the results.
measure: Percent Effect (%)
Please reply with the bare figure in % and do not write the unit itself.

Some solved entries appear below for comparison.
| compound | Percent Effect [%] |
| --- | --- |
| COc1ccc(C#N)cc1CSCCN1CCOCC1 | -1.196 |
| CC(C)(C)OC(=O)NCCC(=O)NCC(O)c1cccc(F)c1 (stereo not given) | -4.021 |

Q: Please give the documented Percent Effect of Cc1ccc(F)c(NC(=O)CCC(=O)N(C)Cc2cc(C3CC3)[nH]n2)c1
A: -39.88

Q: Assign Percent Effect to the following record: O=S(=O)(Cc1ccccc1Cl)NC(CO)c1ccco1 (stereo not given)
A: -8.194

Q: Identify Percent Effect associated with the compound CCOc1ccc(CN(CCC#N)CCN2CCOCC2)cc1OC
A: 119.9

Q: Look up and state reported Percent Effect for CN(Cc1cc(C2CC2)[nH]n1)C(=O)c1ccccc1C1CCNC1 (stereo not given)
A: 6.983

Q: Consider the compound N#CCCN(CCN1CCOCC1)Cc1ccc(F)c(Br)c1 and give its recorded Percent Effect.
A: 132.9

Q: Please indicate Percent Effect recorded for COc1ccc(CN(CCC#N)CCN2CCOCC2)cc1OC
A: 124

Q: Output measured Percent Effect for this item: C[C@H](NC(=O)OC(C)(C)C)c1nnc(S(=O)(=O)Cc2cccc(F)c2)o1
A: 143.7

Q: Item Cc1ccccc1CS(=O)(=O)c1nnc(C(C)NC(=O)OC(C)(C)C)o1 (stereo not given) : provide Percent Effect
A: 85.24

Q: Return value of Percent Effect for input N#Cc1cc(CSCCN2CCOCC2)ccc1F , no commentary.
A: -6.22

Q: Could you please provide reported Percent Effect for Cc1csc(-c2cccc(NC(=O)N3CCOCC3)c2)n1 ? Thanks!
A: -7.869

----------
# Tested on: Wolbachia pipientis
# procedure.details: Anti-Wolbachia Cell-Based Screen
# Type: functional
# Set-up: scale not given: in the data most compounds retested in dose-response had high values
# assay.context: 5 µM
Screen size: about 48,000 compounds; about 13,000 (27%) showed an effect of 50% or more. The list shows a part of the results.
measure: Percent Effect (%)
API: value field is a number in %; no unit string.

Here's what some known entries look like.
| compound | unit.annotation | observed.result |
| --- | --- | --- |
| CS(=O)(=O)N1CCCC12CCN(Cc1nccs1)CC2.O=C(O)C(F)(F)F | % | -14.48 |
| O=C(NCc1ccncc1)C1CN(c2nc3ccccc3s2)CCN1 (stereo unspecified) | % | 6.015 |

Q: # return Percent Effect of O=C(NCc1ccccc1)C1CN(c2ccccn2)CCO1 (stereo unspecified) (system: Wolbachia pipientis)
A: 195.5

Q: Look up and report Percent Effect, with Wolbachia pipientis as system, for CCOC(=O)N1CCC(NCC2CCN(c3cnn(C)c(=O)c3)C2)CC1 (stereo unspecified)
A: -6.682

Q: Give Percent Effect for this entry on Wolbachia pipientis: O=C(NC[C@H]1OC[C@@H]2CCN(c3ccccn3)C[C@@H]21)c1ccco1
A: -8.109

Q: Report Percent Effect under test system Wolbachia pipientis for Cc1cnc(N2CCOC(C(=O)NCc3ccccc3)C2)s1 (stereo unspecified) .
A: 138.3

Q: Under Wolbachia pipientis: report Percent Effect of CC(C)(C)CCCC(=O)NS(=O)(=O)CC1CC1 .
A: -9.167

Q: # lookup: Wolbachia pipientis Percent Effect, key = CCOCC(=O)N1CCC(c2nccn2Cc2cscn2)CC1
A: -5.535
